Molecular target: UniProt:O14842
Sequence (O14842 whole entry): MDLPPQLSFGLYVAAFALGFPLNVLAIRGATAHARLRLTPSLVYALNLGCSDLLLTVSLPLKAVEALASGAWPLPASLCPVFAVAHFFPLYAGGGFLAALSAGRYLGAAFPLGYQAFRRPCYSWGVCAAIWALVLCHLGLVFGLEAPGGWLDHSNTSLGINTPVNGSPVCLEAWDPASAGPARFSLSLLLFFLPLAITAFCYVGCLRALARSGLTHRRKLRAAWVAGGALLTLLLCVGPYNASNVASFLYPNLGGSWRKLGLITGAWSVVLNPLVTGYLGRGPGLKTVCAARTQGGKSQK
Test: Cell based aequorin assay using human GPR40
Details: CHO cells stably transfected with GPR40 and aequorin; 0.01% HSA; aequorin luminescence; read-out: Relative EC50
Reported EC50 is given for each of the following compounds.

Illustrative cases are given below, each with its answer.
compound: O=C(O)CC(c1ccc(OCc2cccc(-c3ccc(C(F)(F)F)cc3)c2)cc1)c1ncco1 (stereo not shown)
obs-value: 0.01 to 0.1 µM

compound: Cc1cc(Cl)ccc1-c1cccc(COc2ccc([C@@H](CC(=O)O)c3ncco3)cc2)c1
obs-value: 1 to 10 µM

compound: CCCCOc1ccc(C)cc1-c1ccc(COc2ccc(C(CC(=O)O)c3ncco3)cc2)cc1 (stereo not shown)
obs-value: 0.01 to 0.1 µM

Q: Write down EC50 measured for item CCOc1cccc(-c2ccc(COc3ccc(C(CC(=O)O)c4ncco4)cc3)cc2)c1 (stereo not shown)
A: 1 to 10 µM

Q: Dear colleague, please send me the reported EC50 for `CCCCOc1ccc(C)cc1-c1ccc(COc2ccc([C@H](CC(=O)O)c3ncnn3C)cc2)cc1` when you can.
A: 0.01 to 0.1 µM

Q: Return EC50 (reported value) for this compound: `CCCCOc1ccc(C)cc1-c1ccc(COc2ccc([C@H](CC(=O)O)c3ncco3)cc2)cc1`
A: 0.01 to 0.1 µM

Q: Supply recorded EC50 for `Cc1cc(Cl)ccc1-c1cccc(COc2ccc([C@H](CC(=O)O)C(=O)N(C)C)cc2)c1` here.
A: 0.01 to 0.1 µM

Q: // Input: `Cc1cc(Cl)ccc1-c1cccc(COc2ccc([C@H](CC(=O)O)c3ncnn3C)cc2)c1` . Output its EC50 only.
A: 0.01 to 0.1 µM

Q: Give recorded EC50. `Cc1ccc(Cl)cc1-c1cccc(COc2ccc([C@H](CC(=O)O)c3nnnn3C)cc2)c1`
A: 0.01 to 0.1 µM

Q: Tell us which EC50 value is on record for Cn1ccnc1C(CC(=O)O)c1ccc(OCc2cccc(Oc3ccccc3)c2)cc1 (stereo not shown)
A: 0.1 to 1 µM

Q: Supply recorded EC50 for `CCCCOc1ccc(C)cc1-c1ccc(COc2ccc([C@H](CC(=O)O)c3nccn3C)cc2)cc1` here.
A: 0.1 to 1 µM

Q: Give reported EC50 value for Cc1nc(-c2ccc(C(F)(F)F)cc2)sc1COc1ccc(C(CC(=O)O)c2ncco2)cc1 (stereo not shown)
A: 0.01 to 0.1 µM

Q: Supply measured EC50 of `Cc1ccc(Cl)cc1-c1cccc(COc2ccc([C@H](CC(=O)O)c3nccn3C)cc2)c1` in your reply.
A: 0.01 to 0.1 µM

Q: Please look at this compound and report its EC50: `Cc1c(Cl)cccc1-c1cccc(COc2ccc([C@H](CC(=O)O)c3nccn3C)cc2)c1`
A: 0.01 to 0.1 µM

Q: Dear colleague, please send me the reported EC50 for Cc1cc(Cl)ccc1-c1cccc(COc2ccc(C(CC(=O)O)c3ncco3)cc2)c1 (stereo not shown) when you can.
A: 0.1 to 1 µM

Q: State its EC50 for this compound: `CCCCOc1ccc(C)cc1-c1ccc(COc2ccc([C@H](CC(=O)O)c3nnnn3C)cc2)cc1`
A: 0.01 to 0.1 µM

Q: Give recorded EC50. `Cc1cc(Cl)ccc1-c1cccc(COc2ccc([C@H](CC(=O)O)c3nnnn3C)cc2)c1`
A: 0.01 to 0.1 µM

Q: Give EC50 for the following compound: `Cc1nc(-c2ccc(C(F)(F)F)cc2)sc1COc1ccc([C@H](CC(=O)O)c2nnnn2C)cc1`
A: 0.01 to 0.1 µM

Q: Give EC50 for the following compound: `Cc1cc(Cl)ccc1-c1cccc(COc2ccc([C@H](CC(=O)O)c3nccn3C)cc2)c1`
A: 0.01 to 0.1 µM
